assay: drug combination growth inhibition, ovarian cancer – cell-based, oncology-focused library, rucaparib conditional, profiling panel (AID 1508598); conditions: patient-derived ovarian cancer cells, CellTiter-Glo viability, 144 h; at 5 µM; OCI-C5x cells; with rucaparib 10 µM; stronger effect = lower value; 100% = cells with rucaparib alone
*1 amine or outer side, *2 acyl side, *3 side chain or, on linkers, in order; H or OH if unused. Where a SMILES comes first, the peptide text is derived from it. Bridges are numbered along the chain shown (N, C = ends). Roman numbers before positions name the chains, in order. [ ]: non-standard residue; d: D form. Hexamethylenediamine = C(CCCN[*:2])CCN[*:1]; Dip = N[C@H](C(=O)O)C(c1ccccc1)c1ccccc1; Chg = N[C@H](C(=O)O)C1CCCCC1; NMeA = CN[C@@H](C)C(=O)O
Form field: viability (one value per entry).
Write it as a number; the unit % goes unstated.

Some solved entries appear below for comparison.
1) CC(=O)O[C@@]1(C(C)=O)CC[C@H]2[C@@H]3C=C(C)C4=CC(=O)CC[C@]4(C)[C@@H]3CC[C@@]21C : 111
2) Nc1nonc1C(=Nc1ccc(F)c(Cl)c1)NO : 114
3) c1ccc(Cn2c(-c3ccc(OC[C@H](C4CCNCC4)n4c(-c5ccccc5)nc5ccccc54)cc3)nc3ccccc32)cc1 : 1.56
4) Cc1cc(C)c(S(=O)(=O)n2cc(C)cc2C)c(C)c1 : 122
5) CCOC(=O)c1[nH]c2cc(Cl)ccc2c1C(C(=O)NC(C)(C)C)N(C=O)Cc1ccc(Cl)cc1 (stereo not drawn) : 116

### Prompt Write down viability measured for item Cc1[nH]c(C=C2C(=O)Nc3ccc(S(=O)(=O)N(C)c4cccc(Cl)c4)cc32)c(C)c1C(=O)N1CCN(C)CC1
### Response 133

### Prompt Write down viability measured for item C[C@]12CCC(=O)C=C1CC[C@@H]1[C@H]2[C@H](O)C[C@@]2(C)[C@H]1CC[C@@]2(O)C(=O)CO
### Response 125

### Prompt Write down viability measured for item NC(=O)CCCSc1nc(N)nc(-c2c(Cl)cc3c4c(cccc24)COC3)n1
### Response 9.52

### Prompt Write down viability measured for item COc1ccc(C2=N[C@@H](c3ccc(Cl)cc3)[C@H](c3ccc(Cl)cc3)N2C(=O)N2CCNC(=O)C2)c(OC(C)C)c1
### Response 84.5

### Prompt Write down viability measured for item CC(=O)O[C@H]1C(=O)[C@@]2(C)C([C@H](OC(=O)c3ccccc3)[C@]3(O)C[C@H](OC(=O)[C@H](O)[C@@H](NC(=O)c4ccccc4)c4ccccc4)C(C)=C1C3(C)C)[C@]1(OC(C)=O)CO[C@@H]1C[C@H]2O (stereo partly drawn)
### Response 24.5

### Prompt Write down viability measured for item O=C(O)c1cc(I)ccc1NC(=O)[C@H](Cc1ccccc1)NCc1ccccc1
### Response 126

### Prompt Write down viability measured for item CN[C@@H](C)C(=O)N[C@H](C(=O)N1CCC[C@H]1C(=O)N[C@H](C(=O)NCCCCCCNC(=O)[C@@H](NC(=O)[C@@H]1CCCN1C(=O)[C@@H](NC(=O)[C@H](C)NC)C1CCCCC1)C(c1ccccc1)c1ccccc1)C(c1ccccc1)c1ccccc1)C1CCCCC1 (I: H-[NMeA][Chg]P[Dip] / II: H-[NMeA][Chg]P[Dip]; linker I:C-II:C via Hexamethylenediamine)
### Response 89.4

### Prompt Write down viability measured for item CN(CC(=O)N(Cc1ccc(C2CCCCC2)cc1)c1ccc(C(=O)O)cc1)S(=O)(=O)c1c(F)c(F)c(F)c(F)c1F
### Response 3.43

### Prompt Write down viability measured for item CC(C)C[C@H](NP(=O)(O)O[C@@H]1O[C@@H](C)[C@H](O)[C@@H](O)[C@H]1O)C(=O)N[C@@H](Cc1c[nH]c2ccccc12)C(=O)O
### Response 123
